Data origin, for the record: patent US9199999B2

# tgt: human kinase Mps-1 (Homo sapiens (Human))
# Sequence (P33981 whole entry): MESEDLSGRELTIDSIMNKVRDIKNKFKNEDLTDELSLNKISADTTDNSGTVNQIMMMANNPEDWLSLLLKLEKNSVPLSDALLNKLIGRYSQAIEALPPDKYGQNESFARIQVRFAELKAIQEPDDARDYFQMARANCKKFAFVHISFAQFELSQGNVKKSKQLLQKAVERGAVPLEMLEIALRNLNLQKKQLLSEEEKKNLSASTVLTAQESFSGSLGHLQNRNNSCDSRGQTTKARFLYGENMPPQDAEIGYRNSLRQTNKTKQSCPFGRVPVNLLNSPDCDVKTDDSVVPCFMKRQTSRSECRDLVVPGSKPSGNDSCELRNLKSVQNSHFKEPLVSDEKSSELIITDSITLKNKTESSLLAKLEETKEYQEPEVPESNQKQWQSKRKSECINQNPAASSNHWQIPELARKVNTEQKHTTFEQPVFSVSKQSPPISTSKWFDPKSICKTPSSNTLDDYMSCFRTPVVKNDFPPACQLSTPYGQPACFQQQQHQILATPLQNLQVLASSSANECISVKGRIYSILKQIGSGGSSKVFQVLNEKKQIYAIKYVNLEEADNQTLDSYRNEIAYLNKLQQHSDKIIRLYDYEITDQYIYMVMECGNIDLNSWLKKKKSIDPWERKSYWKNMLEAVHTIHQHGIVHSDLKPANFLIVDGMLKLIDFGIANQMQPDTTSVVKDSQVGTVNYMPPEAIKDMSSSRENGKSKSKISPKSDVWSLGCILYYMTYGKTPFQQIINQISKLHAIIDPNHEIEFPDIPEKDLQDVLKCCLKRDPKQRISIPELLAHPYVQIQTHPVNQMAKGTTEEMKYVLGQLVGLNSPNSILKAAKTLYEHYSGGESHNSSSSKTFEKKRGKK
# measurement-conditions: read-out: Mps-1 IC50; N-terminally GST-tagged human full length recombinant Mps-1; 10 μM ATP; 1 μM biotinylated peptide substrate; 60 min at 22° C.
assay-readout: IC50 (nM)

Take a look at these entries with their results.
C#Cc1cn2c(-c3ccc(C(=O)NCC(F)F)c(C)c3)cnc2c(NCCC(F)(F)F)n1 ... 215
C#Cc1cn2c(-c3ccc(C(=O)NC)c(C)c3)cnc2c(NCCC(F)(F)F)n1 ... 135

(I) CC(C)(O)CNc1nc(C#CCO)cn2c(-c3ccc(C(=O)NC4CC4)cc3)cnc12
(II) OCC#Cc1cn2c(-c3ccc(-c4cnc(C5CC5)[nH]4)cc3)cnc2c(NCCCCO)n1
Problem: Given the entries I and II , determine which has the lower reported IC50. Lab log: write the label of the selected item as the result. II

====

# tgt: human kinase Mps-1 (Homo sapiens (Human))
# measurement-conditions: read-out: Mps-1 IC50; N-terminally GST-tagged human full length recombinant Mps-1; 10 μM ATP; 1 μM biotinylated peptide substrate; 60 min at 22° C.
assay-readout: IC50 (nM)

OCC#Cc1cn2c(-c3ccc(-c4cnc(C5CC5)[nH]4)cc3)cnc2c(NC[C@H](O)CO)n1 ... 130

(P) CC(C)CNc1nc(C#CCO)cn2c(-c3ccc(-c4cnc(C5CC5)[nH]4)cc3)cnc12
(Q) Cc1cc(-c2cnc3c(NCCC(F)(F)F)nc(C#CCO)cn23)ccc1C(=O)NC1(C#N)CC1
(R) CC(C)CNc1nc(C#CCO)cn2c(-c3ccc(S(=O)(=O)NC4CC4)cc3)cnc12
List from greatest to least IC50. List the labels according to the requested ordering. R, Q, P
(R: 1840 nM, Q: 98 nM, P: 8.4 nM)
